- Test system: SiHa cells
- method_notes: Lactate consumption assay (inhibition of lactate influx)
- Format: cell-based
- condition_context: Homo sapiens, 24 h treatment in lactate-containing medium
Quick reference for log10(IC50) among some compounds
Answers are given as log10 of IC50 in nM.

Here is how some compounds turned out for log10(IC50).
Item under review: CN(Cc1ccccc1)c1ccc2cc(C(=O)O)c(=O)oc2c1 [cpd 31] . Reported log10(IC50)?
1.77

Thanks! And O=C(O)c1cc2ccc(OCCc3ccccc3)cc2oc1=O [cpd 15] ?
3.38

Thanks! And COc1ccc2cc(C(=O)O)c(=O)oc2c1 [cpd 2] ?
3.36

Thanks! And O=C(O)c1cc2ccc(OCc3ccc(F)cc3)cc2oc1=O [cpd 26] ?
3.10

Thanks! And CN(C)c1ccc2cc(C(=O)O)c(=O)oc2c1 [cpd 35] ?
3.15

Thanks! And O=C(O)c1cc2cc3c4c(c2oc1=O)CCCN4CCC3 [cpd 37] ?
3.11

---
Item under review: O=C(O)c1cc2ccc(N3CCOCC3)cc2oc1=O [cpd 34] . Reported log10(IC50)?
3.90

Thanks! And O=C(O)c1cc2ccc(OCc3ccccc3)cc2oc1=O [cpd 9] ?
3.28

meta.source: patent US20160115146A1
